molecular target: Muscarinic acetylcholine receptor M3 (Homo sapiens) (UniProt P20309); experiment: Positive allosteric modulation of recombinant human muscarinic acetylcholine receptor M3 expressed in CHOK1 cells assessed as increase in carbachol-induced intracellular calcium flux at 10 uM preincubated for 5 mins followed by carbachol addition by Fluo4-AM dye based FLIPR assay relative to carbachol; format: functional, cell-based; details: CHO-K1
Sequence (P20309 whole entry, looked up): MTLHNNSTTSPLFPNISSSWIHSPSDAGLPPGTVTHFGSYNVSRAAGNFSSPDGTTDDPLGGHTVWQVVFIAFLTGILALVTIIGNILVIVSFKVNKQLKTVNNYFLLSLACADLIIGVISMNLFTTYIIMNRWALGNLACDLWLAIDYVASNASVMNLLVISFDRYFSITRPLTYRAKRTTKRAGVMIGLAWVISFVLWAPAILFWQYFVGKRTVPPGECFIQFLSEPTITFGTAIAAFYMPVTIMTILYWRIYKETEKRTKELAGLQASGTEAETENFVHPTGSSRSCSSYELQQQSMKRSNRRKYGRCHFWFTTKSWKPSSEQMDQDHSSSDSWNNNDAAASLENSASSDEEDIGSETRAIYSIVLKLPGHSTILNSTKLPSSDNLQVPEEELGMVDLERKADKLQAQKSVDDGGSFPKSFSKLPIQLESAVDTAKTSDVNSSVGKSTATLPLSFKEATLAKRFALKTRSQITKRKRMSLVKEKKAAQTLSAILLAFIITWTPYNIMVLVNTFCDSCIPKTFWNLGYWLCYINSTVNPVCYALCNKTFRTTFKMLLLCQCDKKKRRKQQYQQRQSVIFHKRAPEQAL
quantity: fold change (FC)

// worked examples, fold change (FC) included
Lab note: need fold change (FC) with Muscarinic acetylcholine receptor M3 (Homo sapiens) (UniProt P20309) for entry `COc1ccc(-c2nc(NC(=O)c3cnc(N4CCC(C(=O)O)CC4)cn3)sc2CN2CCC[C@@H]2C)cc1C(F)(F)F.Cl.Cl` , please look it up. 25

Lab note: need fold change (FC) with Muscarinic acetylcholine receptor M3 (Homo sapiens) (UniProt P20309) for entry `CC[C@@H]1CCCN1Cc1sc(NC(=O)c2cnc(N3CCC(C(=O)O)CC3)cn2)nc1-c1ccc(OC)c(C(F)(F)F)c1.Cl.Cl` , please look it up. 269

Lab note: need fold change (FC) with Muscarinic acetylcholine receptor M3 (Homo sapiens) (UniProt P20309) for entry C[C@@H]1CCCN1Cc1sc(NC(=O)C2CCN(c3ccc(C(=O)O)cn3)CC2)nc1-c1cc(Cl)cs1 (racemic) , please look it up. 2.8

Now consider a different compound.
Lab note: need fold change (FC) with Muscarinic acetylcholine receptor M3 (Homo sapiens) (UniProt P20309) for entry `COc1ccc(-c2nc(NC(=O)c3cnc(N4CCC(C(=O)O)CC4)cn3)sc2CN2CCC[C@H]2C)cc1C(F)(F)F.Cl.Cl` , please look it up. 73

* * *

assay: Cmax in Crl:CD(SD) rat at 1 mg/kg, po measured up to 24 hrs by LC-MS/MS analysis; type: ADME, organism-based; set-up: dose 1 mg/kg, route oral; details: in vivo
quantity: Cmax (ng/mL)
Field: numeric (ng/mL). Do not append units.

I would be grateful if you could share the reported Cmax for `CC[C@@H]1CCCN1Cc1sc(NC(=O)c2cnc(N3CCC(C(=O)O)CC3)cn2)nc1-c1ccc(OC)c(C(F)(F)F)c1.Cl.Cl` . 85.3

* * *

The reader will find reported fold change (FC) values listed item by item below.
molecular target: UniProt P20309; experiment: Positive allosteric modulation of recombinant human muscarinic acetylcholine receptor M3 expressed in CHOK1 cells assessed as increase in carbachol-induced intracellular calcium flux at 10 uM preincubated for 5 mins followed by carbachol addition by Fluo4-AM dye based FLIPR assay relative to carbachol; type: functional, cell-based; details: CHO-K1
Would you mind answering with just the numeric figure?

I would be grateful if you could share the reported fold change (FC) for `CCC[C@@H]1CCCN1Cc1sc(NC(=O)c2cnc(N3CCC(C(=O)O)CC3)cn2)nc1-c1ccc(OC)c(C(F)(F)F)c1.Cl.Cl` . 128

I would be grateful if you could share the reported fold change (FC) for `C[C@@H]1CCCN1Cc1sc(NC(=O)c2cnc(N3CCC(C(=O)O)CC3)cn2)nc1-c1cc(Cl)cc(C(F)(F)F)c1.Cl.Cl` . 168

I would be grateful if you could share the reported fold change (FC) for `COc1ccc(-c2nc(NC(=O)c3cnc(C(=O)O)cn3)sc2CN2CCCC(C)(C)C2)cc1C(F)(F)F` . 39

I would be grateful if you could share the reported fold change (FC) for `C[C@@H]1CCCN1Cc1sc(NC(=O)c2cnc(N3CCC(C(=O)O)CC3)cn2)nc1-c1ccc(Cl)c(C(F)(F)F)c1.Cl.Cl` . 118

I would be grateful if you could share the reported fold change (FC) for `COc1ccc(-c2nc(NC(=O)c3cnc(NCC(=O)O)cn3)sc2CN2CCCC(C)(C)C2)cc1C(F)(F)F` . 162

I would be grateful if you could share the reported fold change (FC) for `COCCN(Cc1sc(NC(=O)c2cnc(N3CCC(C(=O)O)CC3)cn2)nc1-c1ccc(OC)c(C(F)(F)F)c1)CC(C)C.Cl.Cl` . 84

I would be grateful if you could share the reported fold change (FC) for `COC[C@@H]1CCCN1Cc1sc(NC(=O)c2cnc(N3CCC(C(=O)O)CC3)cn2)nc1-c1ccc(OC)c(C(F)(F)F)c1.Cl.Cl` . 72

I would be grateful if you could share the reported fold change (FC) for `COc1ccc(-c2nc(NC(=O)c3cnc(N4CCC(C(=O)O)CC4)cn3)sc2CN2CCCC[C@H]2C)cc1C(F)(F)F.Cl.Cl` . 94
